Test system: A. baumannii A401
Assay details: MIC without and with sub-inhibitory polymyxin B (Example 4)
Assay type: cell-based, Acinetobacter baumannii
Conditions: A baumannii A 401; ratio, PB 0.06 μg/ml; 1st experiment
Can you tell me MIC without PB/MIC + PB for the items I'm about to list?

[in] What value of measured MIC without PB/MIC + PB is listed for Cc1c(-c2ccc(CN)cc2)ccn2c(=O)c(C(=O)O)cc(C3CC3)c12 ?
[out] 8

[in] What does the data say about its MIC without PB/MIC + PB? Entry: Cc1c(-c2ccc(N)cc2)ccn2c(=O)c(C(=O)O)cc(C3CC3)c12
[out] ≥1024

[in] I have this compound here, Cc1c(-c2ccc(N)c(F)c2)ccn2c(=O)c(C(=O)O)cc(C3CC3)c12 , and I need its recorded MIC without PB/MIC + PB.
[out] ≥128

[in] Entry COc1c(N2C[C@@H]3CCCN[C@@H]3C2)c(F)cc2c(=O)c(C(=O)O)cn(C3CC3)c12 : reported MIC without PB/MIC + PB = ?
[out] 2

[in] Could you tell me which MIC without PB/MIC + PB is on file for C[C@H]1COc2c(N3CCN(C)CC3)c(F)cc3c(=O)c(C(=O)O)cn1c23 [Levofloxacin, reference compound] ?
[out] 1

[in] Recorded MIC without PB/MIC + PB for Cc1c(-c2ccc(N)cc2)c(F)cn2c(=O)c(C(=O)O)cc(C3CC3)c12 , please?
[out] 8

[in] MIC without PB/MIC + PB lookup needed for Cc1c(-c2ccc(N)c(F)c2)c(F)cn2c(=O)c(C(=O)O)cc(C3CC3)c12 , thanks.
[out] 8

[in] Find the recorded MIC without PB/MIC + PB belonging to Cc1c(-c2ccc(CN)c(F)c2)ccn2c(=O)c(C(=O)O)cc(C3CC3)c12 and report it.
[out] 4

[in] Find the recorded MIC without PB/MIC + PB belonging to Cc1c(-c2ccc(CN)cc2)c(F)cn2c(=O)c(C(=O)O)cc(C3CC3)c12 and report it.
[out] 4
